B1: Azoarcus group I ribozyme (parent)
chain: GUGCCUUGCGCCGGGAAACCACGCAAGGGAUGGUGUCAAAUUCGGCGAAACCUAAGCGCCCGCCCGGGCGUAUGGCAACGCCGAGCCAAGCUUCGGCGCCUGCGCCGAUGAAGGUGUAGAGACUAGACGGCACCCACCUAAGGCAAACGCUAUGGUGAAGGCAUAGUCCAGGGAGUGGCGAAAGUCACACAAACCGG

variants of: B1; test: reverse-splicing fitness (ratio to wild type); higher = more active; in vitro selection; Mg2+ level not given
parameter.measured: reverse-splicing fitness

In [3]: df
Out[3]:
                         variant_description        parameter_measured  obs_value
 0        C82U A111C A120G A145U C169G U176G  reverse-splicing fitness    0.00395
 1  C82A A111C A120G A145G C150G C169A U176G  reverse-splicing fitness    0.00771
 2        C82G A111G A120G A145G C169G U176G  reverse-splicing fitness     0.0045
 3                   A120G A145C C169G U176C  reverse-splicing fitness      0.235
 4                   A111U A120G A145U C169U  reverse-splicing fitness      0.164
 5                         A120G A145U U176C  reverse-splicing fitness      0.269
 6  C82U A111G A120C A145U C150G C169U U176G  reverse-splicing fitness    0.00471
 7  C82U A111G A120C A145C C150U C169U U176C  reverse-splicing fitness    0.00942
 8        C82U A111G A145C C150G C169A U176A  reverse-splicing fitness    0.00801
 9                         A120U C150A C169G  reverse-splicing fitness     0.0291
10              C82G A111U C150U C169G U176A  reverse-splicing fitness     0.0149

Ref: the RNAGym collection of RNA variant scans (doi:10.1093/molbev/msab373)
